Can you tell me apparent KD of MS2 coat protein for the items I'm about to list?
- Tested on: MS2 coat protein
- assay_text: apparent KD of MS2 coat protein; higher = weaker reporter binding
- measurement_conditions: Eterna round: R107; input ligand: tryptophan 2.4 mM
Answers are plain numbers, in nM.

Completed entries (count: 2):
[
  {
    "residue_sequence": "GGUCUCGAGAGCGAUACCAGCUUGAUCGUACUGGCCUGGUACAUGAGGAUCACCCAUGUAAGCCCUUGGCAGCGCUCUCGAGACC [#1 Exclusion - Theophylline B Attempt #7 (HarryS)]",
    "apparent KD of MS2 coat protein [nM]": 14
  },
  {
    "residue_sequence": "GGUGGCUGGAUCGAUACCAGCCACCACCGAUAGACCACAUGAGGAUCACCCAUGUUGGGUGGCCCUUGGCAGCGGUCCGGCUGCC [#1 Same State - Theophylline B Attempt #7 (HarryS)]",
    "apparent KD of MS2 coat protein [nM]": 759
  }
]

I would be grateful if you could provide apparent KD of MS2 coat protein for each of the following entries.
1. CAGGUUAGGGCGGCCGCCACUGUGGCUACGGUACAUGAGGAUCACCCAUGUUUGUGGUUGAUCUACAGGACCGGGCCCUGACACG [Matidier]
2. GGACCAGGGAGCGAUACCAGCUUGAGUGUGCUGGCCAGGCACAUGAGGAUCACCCAUGUAGGCCCUUGGCAGCGCUCCCUGGUCC [#1 Exclusion - Theophylline B Attempt #28 (HarryS)]
3. GAUCUGUCGGGUGAUACCAGCCUCGGCACAUCUCGUGCCGAACAUGAGGAUCACCCAUGUGGCCCUUGGCAGCACAUGACAAAUC [Regebece]

output:
1: 272; 2: 14.1; 3: 1050

---

- Test system: MS2 coat protein
- assay_text: apparent KD of MS2 coat protein; designed switch direction (-1 OFF switch, 1 ON switch): -1; higher = weaker reporter binding
- measurement_conditions: input ligand: FMN 200 uM
Returns one of TRUE or FALSE; TRUE when apparent KD of MS2 coat protein is >= 40 nM.

[
  {
    "residue_sequence": "CACCGUUACUGAGGAUAUCUUACAUGAGGAUCACCCAUGUAAUAAAUGAGAAUUUCGGAUGUAUUAGAGAAGGCAGAAAUCGGC [Ostricism 61 - Jieux - Exclusion NG 2] (Eterna round: R96, puzzle: Exclusion NG 2)",
    "category_label": "FALSE"
  }
]

input: Decide: apparent KD of MS2 coat protein of UAACUAACUCCUCGGAGCAACAUGAGGAUCACCCAUGUUAUGAACAUUCGGUGUAACAGGAUGUUUGCUCGUCUGGA [Eternabot (Original) Solution 22] (Eterna round: R97, puzzle: Sensor, turn-off variant 1) >= 40 nM?
output: TRUE

input: Now the same for GGUGGGCUAGGAUAUGCUUUGGGCGGGCAUUCCUUCGAUAAACUUGAGGAUCACCCAAGUAGAAGGAGCUUGCC [salish99_ex2_r4_024] (Eterna round: R97, puzzle: Exclusion 2)
output: FALSE

---

- Test system: MS2 coat protein
- assay_text: apparent KD of MS2 coat protein; designed switch direction (-1 OFF switch, 1 ON switch): 1; higher = weaker reporter binding
- measurement_conditions: Eterna round: R95; input ligand: none
Returns one of T or F; T when apparent KD of MS2 coat protein is >= 100 nM.

[
  {
    "residue_sequence": "CUCAAACAUGAGGAUCACCCAUGUGUUGUCGUGGGAGGAUAUCCCAGUUCGGUGGCGUCGGGAGAAGGCCUAUGUC [× ×•×ª×• ×ž×“×™× ×” × ×—×ª-16] (puzzle: Same State 1)",
    "category_label": "T"
  },
  {
    "residue_sequence": "AGUCCAGCCUGAGCUGGACAAAAGCAUGUACAUGAGGAUCACCCAUGUCAUGUACAAGCUUUUUGCUCGUCUAAAUA [Mat - hsa-mir-208a - Mod of JL - D27] (puzzle: Sensor for hsa-mir-208a)",
    "category_label": "T"
  },
  {
    "residue_sequence": "GGUAAACAUGAGGAUCACCCAUGUAAUAAUAUGGGAGGAUAUGGGAAUUAAUUAAUUAAACCAGAAGGCCUAAUGU [Mat - Same State 1 - D87] (puzzle: Same State 1)",
    "category_label": "T"
  },
  {
    "residue_sequence": "GUGCAACCGUGUGAGGAUAUCGGUGAACAAACAUGAGGAUCACCCAUGUCCGAAGCUCGGUUCUCCGAGAAGGCGCACAGUUGCA [Same State 2 - Mod of Erisin v.3] (puzzle: Same State 2)",
    "category_label": "T"
  },
  {
    "residue_sequence": "GGAGCCUGCACUGAGGAUAUUCGUAGUGUAACAUGAGGAUCACCCAUGUGUCGCCGUAGCGACUGGGAGAAGGCAGUGCGGCUCG [JL-ss2-3.07 ViennaUCT mod] (puzzle: Same State 2)",
    "category_label": "F"
  }
]

input: Decide: apparent KD of MS2 coat protein of UAGAGAGGAAGCGAGGAUAUCGUGGGAGGAACAUGAGGAUCACCCAUGUGUGAUGUUGAGAGGGACGAGAAGGCGCGGGAAAUUA [JR_SS2_Sub080] (puzzle: Same State 2) >= 100 nM?
output: T

input: Now the same for AAGAAUCUAUCUCAGGAUAUCAUGUCAAAGACAUGAGGAUCACCCAUGUACCAGGAAACUGGUUAUGAGAAGGGAGAUAGAUUCG [Mat - Same State 2 - Mod - D37] (puzzle: Same State 2)
output: T

input: Now the same for CAAACUUAGUAGGGUAGGUACCCAGGAUGACAUGAGGAUCACCCAUGUAAGAGCUUUUUGCUCGUCAUUAACAGUUG [JR_SHM208a_Sub018] (puzzle: Sensor for hsa-mir-208a)
output: F

input: Now the same for UUAGCACAUGAGGAUCACCCAUGUACUAUACUCAUAGGAUAUACAAAGUCUUAAGACGUGGUAGAAGGGUGAGGAA [Zaateddi] (puzzle: Same State 1)
output: T

input: Now the same for UCCGCUAUCUAGAAGGAUAUGCGUAUAUAAACAUGAGGAUCACCCAUGUACCGGCGAAAACCGGUGCAGAAGGUUUAGCUAGUGA [Rediin] (puzzle: Same State 2)
output: T
